KM overview
- studyTarget: Factor X (FX), P00742
- Sequence (P00742 whole entry, looked up): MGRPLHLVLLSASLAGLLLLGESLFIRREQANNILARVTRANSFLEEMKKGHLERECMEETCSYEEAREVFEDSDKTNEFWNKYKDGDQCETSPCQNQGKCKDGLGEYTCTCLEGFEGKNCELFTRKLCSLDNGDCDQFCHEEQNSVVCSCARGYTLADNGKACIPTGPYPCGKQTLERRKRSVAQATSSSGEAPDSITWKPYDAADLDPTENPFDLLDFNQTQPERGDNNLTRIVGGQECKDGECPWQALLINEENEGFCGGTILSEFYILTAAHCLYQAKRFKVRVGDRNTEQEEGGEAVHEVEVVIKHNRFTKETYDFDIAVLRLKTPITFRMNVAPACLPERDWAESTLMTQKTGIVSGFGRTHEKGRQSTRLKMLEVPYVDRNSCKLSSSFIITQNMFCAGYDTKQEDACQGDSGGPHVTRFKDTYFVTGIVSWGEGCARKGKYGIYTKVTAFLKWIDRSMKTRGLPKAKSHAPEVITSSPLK

protein: FIXa-R318Y/R338E/T343R/N346Y/R403E/E410N (protein) chain 1: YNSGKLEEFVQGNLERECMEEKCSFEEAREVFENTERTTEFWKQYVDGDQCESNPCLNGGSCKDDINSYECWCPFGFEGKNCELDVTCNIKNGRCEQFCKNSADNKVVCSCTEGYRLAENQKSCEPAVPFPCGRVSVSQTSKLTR chain 2: VVGGEDAKPGQFPWQVVLNGKVDAFCGGSIVNEKWIVTAAHCVETGVKITVVAGEHNIEETEHTEQKRNVIRIIPHHNYNAAINKYNHDIALLELDEPLVLNSYVTPICIADKEYTNIFLKFGSGYVSGWGRVFHKGYSALVLQYLRVPLVDRATCLESTKFRIYYNMFCAGFHEGGRDSCQGDSGGPHVTEVEGTSFLTGIISWGEECAMKGKYGIYTKVSEYVNWIKNKTKLT
KM [µM]: 0.0158
//
protein: FIXa-Y155F/K247N/N249S/R318Y/R338E/T343R/R403E/E410N (protein) chain 1: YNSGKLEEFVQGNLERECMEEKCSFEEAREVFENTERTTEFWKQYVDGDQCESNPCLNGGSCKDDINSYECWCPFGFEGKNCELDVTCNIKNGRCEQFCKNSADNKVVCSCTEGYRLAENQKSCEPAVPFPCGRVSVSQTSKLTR chain 2: VVGGEDAKPGQFPWQVVLNGKVDAFCGGSIVNEKWIVTAAHCVETGVKITVVAGEHNIEETEHTEQNRSVIRIIPHHNYNAAINKYNHDIALLELDEPLVLNSYVTPICIADKEYTNIFLKFGSGYVSGWGRVFHKGYSALVLQYLRVPLVDRATCLESTKFRIYNNMFCAGFHEGGRDSCQGDSGGPHVTEVEGTSFLTGIISWGEECAMKGKYGIYTKVSEYVNWIKNKTKLT
KM [µM]: 0.0257
//
protein: FIXa-Y155F/K247N/N249S/R318Y/R403E/E410N (protein) chain 1: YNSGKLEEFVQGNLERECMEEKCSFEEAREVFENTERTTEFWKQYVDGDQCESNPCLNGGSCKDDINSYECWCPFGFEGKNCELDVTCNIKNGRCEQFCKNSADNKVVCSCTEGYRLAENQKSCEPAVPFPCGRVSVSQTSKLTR chain 2: VVGGEDAKPGQFPWQVVLNGKVDAFCGGSIVNEKWIVTAAHCVETGVKITVVAGEHNIEETEHTEQNRSVIRIIPHHNYNAAINKYNHDIALLELDEPLVLNSYVTPICIADKEYTNIFLKFGSGYVSGWGRVFHKGYSALVLQYLRVPLVDRATCLRSTKFTIYNNMFCAGFHEGGRDSCQGDSGGPHVTEVEGTSFLTGIISWGEECAMKGKYGIYTKVSEYVNWIKNKTKLT
KM [µM]: 0.125
//
protein: FIXa-D104N/K106S/R318Y/R338E/T343R/R403E/E410N (protein) chain 1: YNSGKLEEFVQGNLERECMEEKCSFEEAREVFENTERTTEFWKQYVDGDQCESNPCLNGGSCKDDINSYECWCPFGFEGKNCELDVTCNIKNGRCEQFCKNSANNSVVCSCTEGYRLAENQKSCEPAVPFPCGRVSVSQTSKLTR chain 2: VVGGEDAKPGQFPWQVVLNGKVDAFCGGSIVNEKWIVTAAHCVETGVKITVVAGEHNIEETEHTEQKRNVIRIIPHHNYNAAINKYNHDIALLELDEPLVLNSYVTPICIADKEYTNIFLKFGSGYVSGWGRVFHKGYSALVLQYLRVPLVDRATCLESTKFRIYNNMFCAGFHEGGRDSCQGDSGGPHVTEVEGTSFLTGIISWGEECAMKGKYGIYTKVSEYVNWIKNKTKLT
KM [µM]: 0.0266
